# METHOD DESCRIPTION: Plasma concentration in rabbit at 30 mg/kg, iv administered as 10 mins infusion measured after 60 mins
# Format: ADME, organism-based, Oryctolagus cuniculus
READOUT: concentration at 1 h (µM)
Could you give me the number in µM? Just the number is fine.

COc1cnc(O[C@@H]2C[C@@H](C(=O)N[C@]3(C(=O)NS(=O)(=O)C4CC4)C[C@H]3C3CC3)N(C(=O)[C@@H](NC(=O)O[C@H](C)C(F)(F)F)C3CCCCC3)C2)c2cc(Cl)ccc12 yielded concentration at 1 h of 253

* * *

# METHOD DESCRIPTION: Inhibition of recombinant full length HCV genotype 2b HC-J8 NS3/4A protease preincubated for 30 mins followed by substrate addition measured by FRET assay
# Design: species or system Hepatitis C virus subtype 2b
READOUT: pIC50
To interpret pIC50, take it as minus log10 of a concentration measured in moles per litre.

COc1cnc(O[C@@H]2C[C@@H](C(=O)N[C@]3(C(=O)NS(=O)(=O)C4CC4)C[C@H]3C3CC3)N(C(=O)[C@@H](NC(=O)O[C@H](C)C(F)(F)F)C3CCCCC3)C2)c2cc(Cl)ccc12 yielded pIC50 of 6.66

C=C[C@@H]1C[C@]1(NC(=O)[C@@H]1C[C@@H](Oc2ncc(OC)c3ccc(Cl)cc23)CN1C(=O)[C@@H](NC(=O)OC(C)(C)C)C(C)(C)C)C(=O)NS(=O)(=O)C1CC1 yielded pIC50 of 7.00

* * *

# METHOD DESCRIPTION: Cardiotoxicity in rabbit heart assessed as change in heart rate at 10 uM perfused for 20 mins measured for 1 min by electrophysiology method relative to control
# Assay type: toxicity, tissue-based, Oryctolagus cuniculus
Give measured Activity for each item. Keep answers brief.
Could you give me the number in %? Just the number is fine.

COc1cnc(O[C@@H]2C[C@@H](C(=O)N[C@]3(C(=O)NS(=O)(=O)C4CC4)C[C@H]3C3CC3)N(C(=O)[C@@H](NC(=O)OC(C)(C)C)C(C)(C)C)C2)c2cc(Cl)ccc12 yielded Activity of -3.5

COc1ccc2c(O[C@@H]3C[C@@H](C(=O)N[C@]4(C(=O)NS(=O)(=O)C5CC5)C[C@H]4C4CC4)N(C(=O)[C@@H](NC(=O)O[C@H](C)C(F)(F)F)C(C)(C)C)C3)nc(OC)cc2c1 yielded Activity of -58

COc1cnc(O[C@@H]2C[C@@H](C(=O)N[C@]3(C(=O)NS(=O)(=O)C4CC4)C[C@H]3C3CC3)N(C(=O)[C@@H](NC(=O)O[C@H](C)C(F)(F)F)C3CCCCC3)C2)c2cc(Cl)ccc12 yielded Activity of -11

COc1cnc(O[C@@H]2C[C@@H](C(=O)N[C@]3(C(=O)NS(=O)(=O)C4CC4)C[C@H]3C3CC3)N(C(=O)[C@@H](NC(=O)OC(C)(C)C(F)(F)F)C(C)(C)C)C2)c2cc(Cl)ccc12 yielded Activity of -14.3

COc1cnc(O[C@@H]2C[C@@H](C(=O)N[C@]3(C(=O)NS(=O)(=O)C4CC4)C[C@H]3C3CC3)N(C(=O)[C@@H](NC(=O)O[C@H](C)C(F)(F)F)C(C)(C)C)C2)c2cccc(Cl)c12 yielded Activity of -19

CC[C@@H]1C[C@]1(NC(=O)[C@@H]1C[C@@H](Oc2ncc(OC)c3ccc(Cl)cc23)CN1C(=O)[C@@H](NC(=O)OC(C)(C)C)C(C)(C)C)C(=O)NS(=O)(=O)C1CC1 yielded Activity of -12

C=C[C@@H]1C[C@]1(NC(=O)[C@@H]1C[C@@H](Oc2ncc(OC)c3ccc(Cl)cc23)CN1C(=O)[C@@H](NC(=O)OC(C)(C)C)C(C)(C)C)C(=O)NS(=O)(=O)C1CC1 yielded Activity of -4

COc1cnc(O[C@@H]2C[C@@H](C(=O)N[C@]3(C(=O)NS(=O)(=O)C4CC4)C[C@H]3C3CC3)N(C(=O)[C@@H](NC(=O)O[C@H](C)C(F)(F)F)C3CCCC3)C2)c2cc(Cl)ccc12 yielded Activity of -6

C=C[C@@H]1C[C@]1(NC(=O)[C@@H]1C[C@@H](Oc2nccc3cc(OC)ccc23)CN1C(=O)[C@@H](NC(=O)OC(C)(C)C)C(C)(C)C)C(=O)NS(=O)(=O)C1CC1 yielded Activity of -25

COc1cnc(O[C@@H]2C[C@@H](C(=O)N[C@]3(C(=O)NS(=O)(=O)C4CC4)C[C@H]3C3CC3)N(C(=O)[C@@H](NC(=O)O[C@H](C)C(F)(F)F)C(C)(C)C)C2)c2cc(Cl)ccc12 yielded Activity of -13
